B1: TPR t1 (parent)
chain: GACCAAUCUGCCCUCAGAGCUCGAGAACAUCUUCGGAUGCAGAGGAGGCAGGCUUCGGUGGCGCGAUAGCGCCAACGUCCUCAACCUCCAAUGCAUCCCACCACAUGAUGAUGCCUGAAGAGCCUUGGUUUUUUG

Variants of: B1
Assay Details: polymerase ribozyme fitness, log enrichment relative to wild type (log ratio); higher = more active; in vitro selection for triplet polymerase activity
Result Type: polymerase ribozyme fitness (log ratio)

Provide polymerase ribozyme fitness (log ratio) values for the following items, in order.
1. GACCAAUCUGCCCUCAGAGCGCGAGAACAUCUUCGGAUGCAGAGGAGGCAGGCUUCGGUGGCGCGAUAGCGCCAACGUCCUCACCCUCCAAUGCAUCCCACCACAUGAUGAUGCCUGAAGAGCCUUGGUUUUUUG [U21G A84C]
2. GACCAAACUGCCCUCAGAGCUCGAGAACAUCUUCGGAUGAAGAGGAGGCAGGCUUCGGUGGCGCGAUAGCUCCAACGUCCUCAACCUCGAAUGCAUCCCACCCCAUGAUGAUGCCUGAAGAGCUUUGGUUUUUUG [U7A C40A G71U C89G A103C C124U]
3. GACCAAUCUGCCCUCAGAGCUCGAGAUCAUCUUCGGAUGCAGAGGAGGCAGGCUUCGGUGGCGCGAUAGCGCCAACGUCCUCAACCUCCAAUGCAUCCCACCACAUGAUGAUGCCUGAAGAGCCUUGGUUUUUUC [A27U G135C]
4. GACCAAUCUGCCCUCAGAGCUCGAGGACAUCUUUGGAUGCAGAGGAGGCAGGCUUCGGUGGCGCGAUAGCGCCAACGUCCUCAAUCUCCAAUGCAUCCCACCACAUGAUGAUGCCUGAAGAGCGUUGGUUUUUUG [A26G C34U C85U C124G]
5. GACCAAUCUGCCCUCAGAGCUCGAGAACAUCUUCGGAUGCAGACGAGGCAGGCUUCGGUGGCGCGAUAGCGCCAACGUCCUCAACCGCCAAUGCAUCCCACCACAUGAUGAUGCCUGAAGAGCCUUGGUUUUUUG [G44C U87G]
6. GACCAAUCUGCCCUCAGAGCUCGAGAACAUCUUCGGAUGCAGAGGAGGCAGGCUUCGGUUGCGCGAUAGCGCCAACGUCCUCAACCUCCAAUGCAUCCCACCACAUGAUAAUGCCUGAAGAGCCUUGGUUUUUUG [G60U G110A]

Result:
1. -2.02
2. -6.17
3. -3.11
4. -2.34
5. -0.724
6. -1

Batch of 3 variants: report polymerase ribozyme fitness (log ratio) for each.
1. GACCUCUCUGCCCUCAGAGCUCGAGAACAUCUUCGGAUGCAGAGGAAGCAGGCUUCGGUGGCGCGAUAGCGCCAACGUCCUCAACCUCCAAUGCAUCCCACCACAUGAUGAUGCCUGAAGAGCCUUGGUUUUUUG [A5U A6C G47A]
2. GACCAAUCUGCCCUCAGAGCUCCAGAACAUCUUCGGAUGCAGAGGUGGCAGGCUUCGGUGGCGCGAUAGCGCCAACGUCCUCAACAUCCAAUGCAUCCCACCACAUGAUGAUGCCUGAUAAGCCUUGGUUUUUUG [G23C A46U C86A A119U G120A]
3. GACCAAUCUGCCCUCAGAGCUCGAGAACAUCUUCGGGUGCAGAGGAGGCAGGCUUCAGUGGCGCGAUAGCGCCAACGUCCUCAACCUCCAAUGCAUCCCACCACACGAUGAUGCCUGAACAGCCUUGGAUUUUUG [A37G G57A U106C G120C U129A]

Result:
1: -1.7; 2: -6.31; 3: -3.11

Would you mind giving polymerase ribozyme fitness (log ratio) for every variant in the list below?
1. GACCAAUCUGCCCUCAGAGCUCGAGAACAUCUUCGGAUGCAGAGGAUGCAGGCUUCGGUGGCGCGAUAGCGCCAAAGUAGUCAACCUCCAAUGGAUCCCCCCACAUGAUGAUGCCGGAAGAGCUUUGGAUUUUUG [G47U C76A C79A C80G C94G A100C U116G C124U U129A]
2. GACCAAUCUGCUCUCAGAGCUCGAGAACAUCUUCGGAUGCAGAGGAGGCAGGCUUCGGUGUCGCGAUAGCGCCAACGUCCUCAACCUCCAAUGCAUCCCACCACAUGAGGAUGCCUGAAUAGCCUUGGUUUUUUG [C12U G61U U109G G120U]
3. GACCAAUCUGCCCUCAGAGCUCGAGAACAUCUUCGGAUGCAGAGGAGGCAGGCUUCGGUGGCGCGAUAGCGCCAACGUCCUCAACCUCCCAUGCAUCCCACCAUCUGAUGAUGCCUGAAGAGCCUUGGUUUUUUG [A90C C104U A105C]

Result:
1: -5.73; 2: -4.29; 3: -5.64
